Exercise: state measured Bliss interaction score for each of the compounds provided.
Test system: B. subtilis 168
ASSAY EXPLANATION: Bliss interaction score (quartile over a dose matrix) (fitness difference); higher = more antagonism (negative = synergy);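 also: first quartile when negative (synergy) and third quartile when positive (antagonism)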
Just the number, please, no unit attached.

For record CCC[C@@H]1C[C@@H](C(=O)N[C@@H]([C@H]2O[C@H](SC)[C@H](O)[C@@H](O)[C@H]2O)[C@H](C)Cl)N(C)C1 [Clindamycin] + C[C@@H]1O[C@@H]1P(=O)(O)O [Fosfomycin] the listed Bliss interaction score is 0.0321

For record N[C@@H]1CONC1=O [CycloserineD] + Cc1onc(-c2ccccc2)c1C(=O)N[C@@H]1C(=O)N2[C@@H]1SC(C)(C)[C@@H]2C(=O)O [Oxacillin] the listed Bliss interaction score is 0.0509

For record CCC[C@@H]1C[C@@H](C(=O)N[C@@H]([C@H]2O[C@H](SC)[C@H](O)[C@@H](O)[C@H]2O)[C@H](C)Cl)N(C)C1 [Clindamycin] + CN[C@@H]1[C@H](O[C@H]2[C@H](O[C@H]3[C@H](O)[C@@H](O)[C@H](N=C(N)N)[C@@H](O)[C@@H]3N=C(N)N)O[C@@H](C)[C@]2(O)C=O)O[C@@H](CO)[C@H](O)[C@H]1O [Streptomycin] the listed Bliss interaction score is -0.101

For record CCC[C@@H]1C[C@@H](C(=O)N[C@@H]([C@H]2O[C@H](SC)[C@H](O)[C@@H](O)[C@H]2O)[C@@H](C)O)N(C)C1 [Lincomycin] + CN[C@H](CC(C)C)C(=O)N[C@H]1C(=O)N[C@@H](CC(N)=O)C(=O)N[C@H]2C(=O)N[C@H]3C(=O)N[C@H](C(=O)N[C@H](C(=O)O)c4cc(O)cc(O)c4-c4cc3ccc4O)[C@H](O)c3ccc(c(Cl)c3)Oc3cc2cc(c3O[C@@H]2O[C@H](CO)[C@@H](O)[C@H](O)[C@H]2O[C@H]2C[C@](C)(N)[C@H](O)[C@H](C)O2)Oc2ccc(cc2Cl)[C@H]1O [Vancomycin] the listed Bliss interaction score is 0.0223

For record CCC[C@@H]1C[C@@H](C(=O)N[C@@H]([C@H]2O[C@H](SC)[C@H](O)[C@@H](O)[C@H]2O)[C@@H](C)O)N(C)C1 [Lincomycin] + CO[C@H]1/C=C/O[C@@]2(C)Oc3c(C)c(O)c4c(O)c(c(/C=N/N5CCN(C)CC5)c(O)c4c3C2=O)NC(=O)/C(C)=C\C=C\[C@H](C)[C@H](O)[C@@H](C)[C@@H](O)[C@@H](C)[C@H](OC(C)=O)[C@@H]1C [Rifampicin] the listed Bliss interaction score is -0.0988

For record C/C(=C\C(=O)OCCCCCCCCC(=O)O)C[C@@H]1OC[C@H](C[C@@H]2O[C@H]2[C@@H](C)[C@H](C)O)[C@@H](O)[C@H]1O [Pseudomonic acid] + Oc1cc(Cl)ccc1Oc1ccc(Cl)cc1Cl [Triclosan] the listed Bliss interaction score is -0.0255

For record N[C@@H]1CONC1=O [CycloserineD] + CC1(C)S[C@@H]2[C@H](NC(=O)Cc3ccccc3)C(=O)N2[C@H]1C(=O)O [PenicillinG] the listed Bliss interaction score is 0.116

###

Test system: S. pneumoniae D39V
ASSAY EXPLANATION: Bliss interaction score (quartile over a dose matrix) (fitness difference); higher = more antagonism (negative = synergy)
Answer FALSE if Bliss interaction score is under 0.04, and TRUE if it is 0.04 or more.

Does Bliss interaction score meet or surpass 0.04 for O=C(O[C@@H]1Cc2c(O)cc(O)cc2O[C@@H]1c1cc(O)c(O)c(O)c1)c1cc(O)c(O)c(O)c1 [EGCG] + Cc1ncc([N+](=O)[O-])n1CCO [Metronidazole] ?
FALSE

Does Bliss interaction score meet or surpass 0.04 for CC(=O)O[C@H]1C[C@@]2(C)[C@@H](C[C@@H](O)[C@H]3[C@@]4(C)CC[C@@H](O)[C@@H](C)[C@@H]4CC[C@@]32C)/C1=C(\CCC=C(C)C)C(=O)O [Fusidic acid] + C/C(=C\C(=O)OCCCCCCCCC(=O)O)C[C@@H]1OC[C@H](C[C@@H]2O[C@H]2[C@@H](C)[C@H](C)O)[C@@H](O)[C@H]1O [Pseudomonic acid] ?
TRUE

Does Bliss interaction score meet or surpass 0.04 for CC(=O)O[C@H]1C[C@@]2(C)[C@@H](C[C@@H](O)[C@H]3[C@@]4(C)CC[C@@H](O)[C@@H](C)[C@@H]4CC[C@@]32C)/C1=C(\CCC=C(C)C)C(=O)O [Fusidic acid] + CO[C@@]12[C@H](COC(N)=O)C3=C(C(=O)C(C)=C(N)C3=O)N1C[C@@H]1N[C@@H]12 [MitomycinC] ?
FALSE

Does Bliss interaction score meet or surpass 0.04 for O=C(N[C@H](CO)[C@H](O)c1ccc([N+](=O)[O-])cc1)C(Cl)Cl [Chloramphenicol] + COc1cc(Cc2cnc(N)nc2N)cc(OC)c1OC [Trimethoprim] ?
FALSE

Does Bliss interaction score meet or surpass 0.04 for C[C@@H](O)[C@H]1C(=O)N2C(C(=O)O)=C(SCCNC=N)C[C@H]12 [Imipenem] + COc1ccc(C[C@H](N)C(=O)N[C@H]2[C@@H](O)[C@H](n3cnc4c(N(C)C)ncnc43)O[C@@H]2CO)cc1 [Puromycin] ?
TRUE

Does Bliss interaction score meet or surpass 0.04 for O=C1CN(/N=C/c2ccc([N+](=O)[O-])o2)C(=O)N1 [Nitrofurantoin] + CN(N=O)C(=O)N[C@@H](C=O)[C@@H](O)[C@H](O)[C@H](O)CO [Streptozotocin] ?
TRUE

Does Bliss interaction score meet or surpass 0.04 for O=C1CN(/N=C/c2ccc([N+](=O)[O-])o2)C(=O)N1 [Nitrofurantoin] + CN(C)c1cc(NC(=O)CNC(C)(C)C)c(O)c2c1C[C@H]1C[C@H]3[C@H](N(C)C)C(O)=C(C(N)=O)C(=O)[C@@]3(O)C(O)=C1C2=O [Tigecycline] ?
TRUE

Does Bliss interaction score meet or surpass 0.04 for CC(=O)O[C@H]1C[C@@]2(C)[C@@H](C[C@@H](O)[C@H]3[C@@]4(C)CC[C@@H](O)[C@@H](C)[C@@H]4CC[C@@]32C)/C1=C(\CCC=C(C)C)C(=O)O [Fusidic acid] + C[n+]1ccc(-c2cc[n+](C)cc2)cc1 [Paraquat] ?
TRUE
